- Test system: S. invicta sNPF receptor (HA-tagged, stably expressed in CHO-K1 cells)
- test-protocol: Inhibition of forskolin-stimulated intracellular cAMP in SisNPFR-C6E8 cell line (cAMP EIA)
- Assay type: cell-based, Solenopsis invicta
- experimental-context: forskolin 10 µM, peptide at 1 µM (analogous sNP(F) tested at 10 nM and 1 µM), three biological replicates
result-type: Activity on the receptor (change of forskolin-stimulated cAMP), result in words

AQRSPSLRLRFa [Drome sNPF1, Drosophila melanogaster sNPF peptide (AAN11060.1)] ... not active1 µM
SPSLRLRFa [Drome sNPF212–19] ... not active1 µM
WFGDVNQKPIRSPSLRLRFa [Drome sNPF2, Drosophila melanogaster sNPF peptide (AAN11060.1)] ... not active1 µM
